- SYSTEM: M4 muscarinic receptor (Homo sapiens, UniProt P08173)
- Construct: expressed in transfected cells
- Sequence (P08173 whole entry): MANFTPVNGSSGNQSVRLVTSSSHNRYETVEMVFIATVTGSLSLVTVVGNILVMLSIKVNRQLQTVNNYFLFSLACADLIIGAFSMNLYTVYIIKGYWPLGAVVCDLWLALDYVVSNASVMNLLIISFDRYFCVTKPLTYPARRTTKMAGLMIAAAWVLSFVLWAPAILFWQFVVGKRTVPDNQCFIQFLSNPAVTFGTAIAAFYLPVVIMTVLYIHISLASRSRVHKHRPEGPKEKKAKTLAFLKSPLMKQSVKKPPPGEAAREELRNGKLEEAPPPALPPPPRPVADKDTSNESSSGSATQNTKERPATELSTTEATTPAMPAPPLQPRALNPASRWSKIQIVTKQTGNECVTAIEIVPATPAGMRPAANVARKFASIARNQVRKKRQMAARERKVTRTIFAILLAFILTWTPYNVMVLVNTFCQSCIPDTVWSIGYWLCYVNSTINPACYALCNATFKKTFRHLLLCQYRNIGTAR
- ASSAY_SUMMARY: Receptor Selection and Amplification (R-SAT) assay, cloned M4 receptor
- Format: cell-based
- SETTINGS: R-SAT, cloned m4 receptor; read-out: m4 pEC50 (converted)
PROPERTY_NAME: EC50 (µM)
Numbers only here, please. The scale is µM.

Quick note, EC50 for "CCCCC1CCN(CCCN2C(=O)COc3ccc(C)cc32)CC1" landed at 0.316

Quick note, EC50 for "CCCCC1CCN(CCCN2CCOc3ccc(C)cc32)CC1" landed at 0.251

Quick note, EC50 for "CCCCC1CCN(CCCN2CCOc3ccc(CC)cc32)CC1" landed at 2

Quick note, EC50 for "CCCCC1CCN(CCCN2CCCc3ccccc32)CC1" landed at 1

Quick note, EC50 for "CCCCC1CCN(CCCN2C(=O)COc3cc(F)ccc32)CC1" landed at 0.398

====

- SYSTEM: M4 muscarinic receptor (Homo sapiens)
- Construct: expressed in transfected cells
- ASSAY_SUMMARY: Receptor Selection and Amplification (R-SAT) assay, cloned M4 receptor
- Format: cell-based
- SETTINGS: R-SAT, cloned m4 receptor; read-out: m4 % Efficacy
molecules and their reported Emax
Numbers only here, please. The scale is %.

Quick note, Emax for "CCCCC1CCN(CCCN2CCCc3ccccc32)CC1" landed at 68

Quick note, Emax for "CCCCC1CCN(CCCN2C(=O)COc3ccc(C)cc32)CC1" landed at 50

Quick note, Emax for "CCCCC1CCN(CCCN2CCOc3ccc(CC)cc32)CC1" landed at 51

Quick note, Emax for CCCCC1CCN(CCCN2c3ccccc3CCC2C)CC1 (centres unmarked) landed at 64

Quick note, Emax for "CCCCC1CCN(CCCN2C(=O)COc3cc(F)ccc32)CC1" landed at 57

Quick note, Emax for CCCCC1CCN(CCCN2c3cc(F)ccc3CCC2C)CC1 (centres unmarked) landed at 37

More entries:
Quick note, Emax for "CCCCC1CCN(CCCN2CCCc3cc(C)ccc32)CC1" landed at 28

Quick note, Emax for "CCCCC1CCN(CCCN2CCOc3ccc(C)cc32)CC1" landed at 52

====

- SYSTEM: M1 muscarinic receptor (Homo sapiens)
- Construct: expressed in transfected cells
- ASSAY_SUMMARY: Receptor Selection and Amplification (R-SAT) assay, cloned M1 receptor
- Assay type: cell-based
- SETTINGS: R-SAT, cloned m1 receptor; read-out: m1 % Efficacy
- Description: The EC50 for an agonist is intended to denote the concentration of a compound needed to achieve 50% of a maximal response seen in an in vitro assay such as R-SAT. For inverse agonists, EC50 is intended to denote the concentration of a compound needed to achieve 50% inhibition of an R-SAT response from basal, no compound, levels. […]
Lab note: cut-off is 70%. Strictly less in Emax is true (1). Exactly 70% or more is false (0).

Check out these entries, answers already filled in.
Dear reviewer, please state whether "CCCCC1CCN(CCCN2CCCc3ccc(C(F)(F)F)cc32)CC1" has Emax strictly beneath 70%.
true (1)

Dear reviewer, please state whether "CCCCC1CCN(CCCN2C(=O)CCc3cc(OC)ccc32)CC1" has Emax strictly beneath 70%.
false (0)

Dear reviewer, please state whether CCCCC1CCN(CCCN2c3ccccc3CCC2C)CC1 (stereo not drawn) has Emax strictly beneath 70%.
true (1)

Dear reviewer, please state whether "CCCCC1CCN(CCCN2C(=O)COc3ccc(C)cc32)CC1" has Emax strictly beneath 70%.
false (0)

Dear reviewer, please state whether "CCCCC1CCN(CCCN2C(=O)COc3cc(F)ccc32)CC1" has Emax strictly beneath 70%.
false (0)

Dear reviewer, please state whether "CCCCC1CCN(CCCN2CCCc3cc(C)ccc32)CC1" has Emax strictly beneath 70%.
true (1)

Dear reviewer, please state whether "CCCCC1CCN(CCCN2CCOc3ccc(C)cc32)CC1" has Emax strictly beneath 70%.
false (0)

Dear reviewer, please state whether "CCCCC1CCN(CCCN2C(=O)CCc3c2ccc(F)c3C)CC1" has Emax strictly beneath 70%.
false (0)

More entries:
Dear reviewer, please state whether "CCCCC1CCN(CCCN2C(=O)COc3ccc(C(C)=O)cc32)CC1" has Emax strictly beneath 70%.
true (1)

Dear reviewer, please state whether CCCCC1CCN(CCCN2c3cc(F)ccc3CCC2C)CC1 (stereo not drawn) has Emax strictly beneath 70%.
true (1)

====

- SYSTEM: M1 muscarinic receptor (Homo sapiens, UniProt P11229)
- Construct: expressed in transfected cells
- Sequence (P11229 1-460): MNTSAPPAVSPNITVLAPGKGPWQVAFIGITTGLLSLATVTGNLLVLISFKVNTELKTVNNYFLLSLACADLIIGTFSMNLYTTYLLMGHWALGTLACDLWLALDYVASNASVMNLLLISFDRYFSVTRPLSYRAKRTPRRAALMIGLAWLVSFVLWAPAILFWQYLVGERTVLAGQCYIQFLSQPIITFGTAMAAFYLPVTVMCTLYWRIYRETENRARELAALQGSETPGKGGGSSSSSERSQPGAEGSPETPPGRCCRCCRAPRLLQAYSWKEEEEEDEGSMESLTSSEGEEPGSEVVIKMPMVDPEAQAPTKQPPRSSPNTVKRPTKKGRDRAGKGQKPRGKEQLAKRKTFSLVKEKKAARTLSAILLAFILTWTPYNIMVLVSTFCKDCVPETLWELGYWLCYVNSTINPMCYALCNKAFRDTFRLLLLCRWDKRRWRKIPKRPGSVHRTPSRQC
- ASSAY_SUMMARY: Receptor Selection and Amplification (R-SAT) assay, cloned M1 receptor
- Type: cell-based
- SETTINGS: R-SAT, second table (COMPOUND ID series); read-out: M1 pEC50 (converted)
compounds and their reported log10 EC50
Values are log10 of EC50 in nM.

The compound O=C1CCc2cc(F)c(F)cc2N1CCCN1CCC(OCC2CC2)CC1 [Compound 00262272] , tested on M1 muscarinic receptor (Homo sapiens, UniProt P11229), showed log10 EC50 of 1.70

The compound O=C1COc2c(F)ccc(F)c2N1CCCN1CCC(OCC2CC2)CC1 [Compound 00262869] , tested on M1 muscarinic receptor (Homo sapiens, UniProt P11229), showed log10 EC50 of 3.20

More entries:
The compound CC(CN1CCC(OCC2CC2)CC1)CN1C(=O)COc2ccccc21 (racemic) [Compound 00262273] , tested on M1 muscarinic receptor (Homo sapiens, UniProt P11229), showed log10 EC50 of 1.40

The compound C[C@@H](CN1C(=O)COc2ccccc21)CN1[C@@H]2CC[C@H]1CC(=NOCC1CC1)C2 (mixture of isomers) [Compound 00261537] , tested on M1 muscarinic receptor (Homo sapiens, UniProt P11229), showed log10 EC50 of 2.10

The compound O=C1COc2c(F)cc(F)cc2N1CCCN1CCC(OCC2CC2)CC1 [Compound 00262874] , tested on M1 muscarinic receptor (Homo sapiens, UniProt P11229), showed log10 EC50 of 2.80

====

compounds and their reported EC50
- SYSTEM: M1 muscarinic receptor (Homo sapiens)
- Construct: expressed in transfected cells
- Sequence (P11229 1-460): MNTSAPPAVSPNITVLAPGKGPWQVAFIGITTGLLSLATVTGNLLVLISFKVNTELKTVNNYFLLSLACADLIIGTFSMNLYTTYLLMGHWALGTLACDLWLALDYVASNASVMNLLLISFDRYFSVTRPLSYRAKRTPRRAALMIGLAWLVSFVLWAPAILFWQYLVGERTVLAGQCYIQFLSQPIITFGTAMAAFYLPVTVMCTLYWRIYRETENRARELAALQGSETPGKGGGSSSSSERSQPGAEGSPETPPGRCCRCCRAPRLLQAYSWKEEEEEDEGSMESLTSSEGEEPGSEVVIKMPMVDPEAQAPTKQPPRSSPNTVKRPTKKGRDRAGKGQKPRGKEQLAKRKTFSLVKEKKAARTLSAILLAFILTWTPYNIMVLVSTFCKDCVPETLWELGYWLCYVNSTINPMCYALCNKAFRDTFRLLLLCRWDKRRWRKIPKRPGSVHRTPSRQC
- ASSAY_SUMMARY: Receptor Selection and Amplification (R-SAT) assay, cloned M1 receptor
- Format: cell-based
- SETTINGS: R-SAT, cloned m1 receptor; read-out: m1 pEC50 (converted)
Numbers only here, please. The scale is nM.

Examples with answers:
Quick note, EC50 for "CCCCC1CCN(CCCN2C(=O)CCc3cc(OC)ccc32)CC1" landed at 79.4

Quick note, EC50 for "CCCCC1CCN(CCCN2CCOc3ccc(CC)cc32)CC1" landed at 158

Quick note, EC50 for CCCCC1CCN(CCCN2c3cc(F)ccc3CCC2C)CC1 (centres unmarked) landed at 200

Quick note, EC50 for CCCCC1CCN(CCCN2c3ccccc3CCC2C)CC1 (centres unmarked) landed at 200

Quick note, EC50 for "CCCCC1CCN(CCCN2CCCc3ccccc32)CC1" landed at 50.1

Quick note, EC50 for "CCCCC1CCN(CCCN2C(=O)COc3ccc(C(C)=O)cc32)CC1" landed at 2510

More entries:
Quick note, EC50 for "CCCCC1CCN(CCCN2CCCc3cc(C)ccc32)CC1" landed at 316

Quick note, EC50 for "CCCCC1CCN(CCCN2C(=O)CCc3c2ccc(F)c3C)CC1" landed at 25.1

Quick note, EC50 for "CCCCC1CCN(CCCN2C(=O)COc3ccc(C)cc32)CC1" landed at 39.8

Quick note, EC50 for "CCCCC1CCN(CCCN2CCOc3ccc(C)cc32)CC1" landed at 63.1

Quick note, EC50 for "CCCCC1CCN(CCCN2CCCc3ccc(C(F)(F)F)cc32)CC1" landed at 398
